target desc: human SSTR4 (Homo sapiens, UniProt P31391)
Construct: expressed in transfected cells; host or cells: CHO-K1 cells and CCL39 cells
Sequence (P31391 whole entry): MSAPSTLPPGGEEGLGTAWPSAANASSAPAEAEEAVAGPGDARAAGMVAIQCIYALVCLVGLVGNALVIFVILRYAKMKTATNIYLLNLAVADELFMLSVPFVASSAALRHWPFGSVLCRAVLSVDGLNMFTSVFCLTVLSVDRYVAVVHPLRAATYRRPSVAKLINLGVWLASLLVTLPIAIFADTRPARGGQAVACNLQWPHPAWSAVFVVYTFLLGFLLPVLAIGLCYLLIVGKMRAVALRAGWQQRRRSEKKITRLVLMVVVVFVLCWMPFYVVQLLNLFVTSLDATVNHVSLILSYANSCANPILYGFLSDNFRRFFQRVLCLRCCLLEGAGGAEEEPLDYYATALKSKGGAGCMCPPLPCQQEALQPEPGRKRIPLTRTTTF
experiment: Displacement of 125I-[Leu8,D-Trp22,Tyr25]-somatostatin-28 from cloned SSTR4 (receptor autoradiography on membrane pellets)
Assay type: binding
assay context: inhibition of 125I-[Leu8,D-Trp22,Tyr24]SRIF-28 binding, cloned receptor; read-out: IC50 (nM) mSSTR4
Listed here: items and their measured IC50.

molecule: C[C@@H](O)[C@@H]1NC(=O)[C@H](CCCCN)NC(=O)[C@@H](N(C)C(=O)c2ccc3ccccc3c2)NC(=O)[C@H](Cc2ccc(Cl)cc2)NC(=O)[C@H](Cc2ccccc2)NC(=O)[C@H](N)CSSC[C@@H](C(=O)O)NC(=O)[C@H](Cc2ccccc2)NC1=O [Peptide No. 2E]
IC50: > 10000 nM

molecule: C[C@@H](O)[C@@H]1NC(=O)[C@H](CCCCN)NC(=O)[C@@H](N(C)C(=O)c2ccc3ccccc3c2)NC(=O)[C@H](Cc2ccc(O)cc2)NC(=O)[C@H](Cc2ccccc2)NC(=O)[C@@H](N)CSSC[C@@H](C(=O)O)NC(=O)[C@H](Cc2ccccc2)NC1=O [Peptide No. 2]
IC50: > 1000 nM

molecule: C[C@@H](O)[C@@H]1NC(=O)[C@H](CCCCN)NC(=O)[C@@H](Cc2ccc3ccccc3c2)NC(=O)[C@H](N(C)C(=O)c2ccccc2)NC(=O)[C@H](Cc2ccccc2)NC(=O)[C@@H](N)CSSC[C@@H](C(=O)O)NC(=O)[C@H](Cc2ccccc2)NC1=O [Peptide No. 3]
IC50: > 1000 nM

molecule: C[C@@H](O)[C@@H]1NC(=O)[C@H](CCCCN)NC(=O)[C@@H](N(C)C(=O)c2ccc3ccccc3c2)NC(=O)[C@H](Cc2ccc(Cl)cc2)NC(=O)[C@H](Cc2ccccc2)NC(=O)[C@@H](N)CSSC[C@@H](C(=O)O)NC(=O)[C@H](Cc2ccccc2)NC1=O [Peptide No. 2C]
IC50: > 10000 nM

Please tell me: IC50 of C[C@@H](O)[C@@H]1NC(=O)[C@H](CCCCN)NC(=O)[C@@H](N(C)C(=O)c2ccc3ccccc3c2)NC(=O)[C@H](Cc2ccccc2)NC(=O)[C@H](Cc2ccccc2)NC(=O)[C@H](N)CSSC[C@@H](C(=O)O)NC(=O)[C@H](Cc2ccccc2)NC1=O [Peptide No. 2D] , system human SSTR4 (Homo sapiens, UniProt P31391)? > 10000 nM

Under human SSTR4 (Homo sapiens, UniProt P31391): IC50 value of C[C@@H](O)[C@@H]1NC(=O)[C@H](CCCCN)NC(=O)[C@@H](N(C)C(=O)c2ccc3ccccc3c2)NC(=O)[C@H](Cc2ccc(O)cc2)NC(=O)[C@H](Cc2ccccc2)NC(=O)[C@H](N)CSSC[C@@H](C(=O)O)NC(=O)[C@H](Cc2ccccc2)NC1=O [Peptide No. 2A] ? > 10000 nM

Observed IC50 on human SSTR4 (Homo sapiens, UniProt P31391) for C[C@@H](O)[C@@H]1NC(=O)[C@H](CCCCN)NC(=O)[C@@H](N(C)C(=O)c2ccc3ccccc3c2)NC(=O)[C@H](Cc2ccc(O)cc2)NC(=O)[C@H](Cc2ccccc2)NC(=O)[C@H](NC(N)=O)CSSC[C@@H](C(=O)O)NC(=O)[C@H](Cc2ccccc2)NC1=O [Peptide No. 2F] , please. > 10000 nM

Record C[C@@H](O)[C@@H]1NC(=O)[C@H](CCCCN)NC(=O)[C@@H](N(C)C(=O)c2ccc3ccccc3c2)NC(=O)[C@H](Cc2ccccc2)NC(=O)[C@H](Cc2ccccc2)NC(=O)[C@@H](N)CSSC[C@@H](C(=O)O)NC(=O)[C@H](Cc2ccccc2)NC1=O [Peptide No. 2B] : what is its IC50 with human SSTR4 (Homo sapiens, UniProt P31391)? > 10000 nM
